Measured MFI values are reported for all entries that follow.
target-system: T1, human TMEM106B (human, UniProt Q9NUM4 2-274)
T1 construct: Full-length, on transiently transfected HEK293 cells, or natively expressed on HeLa, U251 and A549 cells; also called huTMEM106B; huTMEM
experiment: FACS A549, 10 ug/ml

[
  {
    "binder": "anti-TMEM106B antibody TM-10 (antibody, V domains shown) VH: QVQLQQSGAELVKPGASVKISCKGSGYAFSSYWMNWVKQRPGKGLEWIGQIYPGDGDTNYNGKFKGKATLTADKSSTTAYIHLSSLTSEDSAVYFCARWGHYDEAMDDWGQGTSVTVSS VL: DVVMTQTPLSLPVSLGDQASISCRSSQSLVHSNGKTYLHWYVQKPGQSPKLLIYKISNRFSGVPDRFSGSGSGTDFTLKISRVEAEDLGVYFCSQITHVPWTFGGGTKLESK",
    "MFI": 1090
  },
  {
    "binder": "anti-TMEM106B antibody TM-17 (antibody, V domains shown) VH: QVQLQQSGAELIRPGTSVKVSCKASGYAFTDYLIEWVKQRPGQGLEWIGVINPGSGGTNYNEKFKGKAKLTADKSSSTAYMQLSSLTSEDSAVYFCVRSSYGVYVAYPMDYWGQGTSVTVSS VL: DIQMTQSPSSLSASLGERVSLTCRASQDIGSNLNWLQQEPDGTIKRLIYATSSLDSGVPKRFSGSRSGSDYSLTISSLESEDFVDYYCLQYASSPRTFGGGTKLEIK",
    "MFI": 425
  },
  {
    "binder": "anti-TMEM106B antibody TM-14 (antibody, V domains shown, mouse IgG from hybridoma) VH: QVQLQQSGPELVRPGTSVKVSCKASGYAFTNYLIEWVKQRPGQGLEWIGVINPGGGNTDYSEKFKDKATLTADKSSNTAYIQLSSLTSEDSAVYFCARSPYSSYVGYAVDYWGQGTSVTVSS VL: DIQMTQSPSSLSASLGERVSLTCRASQDIGSNLNWLQQEPDGTIKRLIYATSSLDSGVPKRFSGSRSGSDYSLTISSLESEDFVVYYCLQYASSPRTFGGGTRLEIK",
    "MFI": 438
  },
  {
    "binder": "anti-TMEM106B antibody TM-25 (antibody, V domains shown) VH: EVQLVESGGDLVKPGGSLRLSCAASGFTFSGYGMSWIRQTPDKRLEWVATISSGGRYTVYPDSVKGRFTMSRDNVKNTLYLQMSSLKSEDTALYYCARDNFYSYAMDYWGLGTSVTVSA VL: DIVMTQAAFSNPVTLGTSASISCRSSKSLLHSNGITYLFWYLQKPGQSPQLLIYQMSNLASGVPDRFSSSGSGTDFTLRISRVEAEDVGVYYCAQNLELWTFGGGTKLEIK",
    "MFI": 7000
  }
]
